- measured_target: human ErbB2, full length, on cells (human, UniProt P04626 23-1255)
- assay_name: cell-based or functional assay
Give measured EC50 (ng/ml) n2, inhibition of Heregulin-induced ErbB2 phosphorylation in MCF7 cells for each item. Keep answers brief.
Return type: number; implicit unit ng/mL.

Query string: I would be grateful if you could share the reported EC50 (ng/ml) n2, inhibition of Heregulin-induced ErbB2 phosphorylation in MCF7 cells for monoclonal antibody 1.18.1 (antibody, V domains shown, Fully human IgG (gamma/kappa) from a XenoMouse XM3B-3 hybridoma; constant regions not tied to it) VH: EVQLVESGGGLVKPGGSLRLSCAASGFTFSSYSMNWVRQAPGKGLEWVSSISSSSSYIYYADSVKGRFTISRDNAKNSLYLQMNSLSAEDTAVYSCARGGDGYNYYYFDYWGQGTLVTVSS VL: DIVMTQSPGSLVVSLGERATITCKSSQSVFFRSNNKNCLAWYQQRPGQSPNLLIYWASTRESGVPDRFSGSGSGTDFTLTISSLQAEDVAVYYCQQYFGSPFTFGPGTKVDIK .
Result string: 10.8

Query string: I would be grateful if you could share the reported EC50 (ng/ml) n2, inhibition of Heregulin-induced ErbB2 phosphorylation in MCF7 cells for monoclonal antibody 1.20 (antibody, V domains shown, Fully human IgG (gamma/kappa) from a XenoMouse XM3B-3 hybridoma; constant regions not tied to it; also called 1.20.1; 1.19) VH: EVQLVESGGGLVKPGGSLRLSCAASGFTFSSYTMNWVRQAPGKGLEWVSSISSSSSYIYYADSVKGRFTISRDNAKNSLYLQMNSLSAEDTAVYSCARGGDGYNYYYFDYWGQGTLVTVSS VL: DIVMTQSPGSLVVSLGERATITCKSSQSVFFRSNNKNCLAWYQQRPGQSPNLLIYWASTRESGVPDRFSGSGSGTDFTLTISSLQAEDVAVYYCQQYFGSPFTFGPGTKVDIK .
Result string: 17.4
